Would you mind telling me the reported composite z-score of each entry?
Tested on: XIP peptide (Xip251-270)
TEST PROTOCOL: small-molecule binders of XIP peptide, primary screen, biochemical, small-molecule microarray, fluorescence 635/667 nm, 0.5 µg/mL protein (AID 1183)
REPORTED CONDITIONS: small-molecule microarray binding, fluorescence 635 nm; higher = more signal
Give bare numbers.

Consider the worked cases shown below.
- MOLECULE: "COC(=O)[C@H](C)NC(=O)CCC1CC(OC(=O)NCc2ccc3c(c2)OCO3)CC2(CCCC(COC(=O)NCC3CCCCC3)O2)O1 (stereo partly drawn)"
  composite z-score: 0.555
- MOLECULE: "COC(=O)CC=C[C@@H](C)[C@@H](C=NOCC[C@@H]1C=C[C@H](OC(C)=O)[C@@H](COC(C)=O)O1)OC"
  composite z-score: 0.239

# map each molecule to its composite z-score
1. CO[C@H]1COC(=O)[C@@H](C)COC(=O)[C@H](COCc2ccccc2)NC(=O)CC=C[C@H]1C
2. CC(C)(C)N1C(=O)[C@H]2[C@H]3[C@H](O)[C@H](O)CC(=O)[C@H]3CC[C@H]2C1=O
3. CCN1C(=O)[C@H]2[C@H]3[C@H](O)[C@H](O)CC(=NNC(=O)OCc4ccc(OC)cc4)[C@@H]3CC[C@H]2C1=O
4. CC(C)=CCCC(C)=CCON=C1C[C@@H](O)[C@@H](O)[C@@H]2[C@@H]3C(=O)N(C4CCCCC4)C(=O)[C@@H]3CC[C@@H]12
5. O=c1n(Cc2cc3c(cc2Cl)OCO3)c(=O)n2n1CC[C@@H]1C(=NOC[C@@H](O)COCc3ccco3)[C@H]3O[C@H]3[C@@H](O)[C@@H]12

Result:
[-0.474, 0.556, -0.225, 0.426, 0.108]

Items follow; give composite z-score for each.
1. CCOC(=O)[C@H](CC(C)C)NC(=O)CCC1CC(OC(=O)NCc2ccc3c(c2)OCO3)CC2(CCCC(COC(=O)NCCCN3CCCC3=O)O2)O1 (stereo partly drawn)
2. CO[C@@H]1COC(=O)CC=C[C@@H](C)[C@@H]2C=C[C@H](O)[C@@H](COC(=O)CC=C[C@H]1C)O2
3. O=C1C[C@@H](O)[C@@H](O)[C@@H]2[C@@H]3C(=O)N(Cc4ccc5c(c4)OCO5)C(=O)[C@@H]3CC[C@H]12

Result:
[0.6, 0.853, 0.0056]

Dear reader, for each entry below, please note its composite z-score.
1. C[C@H]1CC[C@H]2C(=O)OC(CO)CN2[C@@H]1c1ccc(Br)cc1 (stereo partly drawn)
2. CCOC(=O)[C@H](Cc1ccccc1)NC(=O)CCC1CC(OC(=O)NCc2ccc3c(c2)OCO3)CC2(CCCC(COC(=O)NCCC(C)C)O2)O1 (stereo partly drawn)

Result:
0.115
0.18

Problem: Reported composite z-score for "C[C@@H](c1ccccc1)N1C(=O)[C@H]2[C@H]3[C@H](O)[C@H](O)CC(=NO[C@@H]4O[C@H](CO)[C@@H](O)[C@H](O)[C@H]4O)[C@H]3CC[C@H]2C1=O" : what is it?
Result: 0.216
